- System: Escherichia coli TOP10
- test_method_notes: shrunken log2 fold change of peptide-encoding DNA abundance (4.5 h post-induction vs induction); higher = less antimicrobial activity (less host growth inhibition)
- stated_conditions: time post-induction: 4.5 h; library: site-saturation at positions 5, 18, 19, 20
endpoint_name: shrunken log2 fold change
Number only, please.

[[record]]
residue_string = "RRIRWRPPRLPRPRPRPRSDPRP"
result = 0.618


Find the recorded shrunken log2 fold change belonging to RRIRHRPPRLPRPRPRPFTVPRP and report it. -0.0532

One more sequence: RRIRIRPPRLPRPRPRPGVSPRP -0.351

----------
- System: Escherichia coli TOP10;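 further: peptides expressed intracellularly from a pBAD plasmid library in pooled LB shake-flask culture, induced with 0.3% L-arabinose, DNA abundance read by NGS, three biological replicates, DESeq2 with apeglm shrinkage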
- test_method_notes: shrunken log2 fold change of peptide-encoding DNA abundance (4.5 h post-induction vs induction); higher = less antimicrobial activity (less host growth inhibition)
- stated_conditions: time post-induction: 4.5 h; library: site-saturation at positions 5, 18, 19, 20
TRUE means recorded shrunken log2 fold change is 0.1 or above; FALSE means it is below 0.1.

[[record]]
residue_string = "RRIRMRPPRLPRPRPRPGRPPRP"
tested_target = "Escherichia coli TOP10"
answer_label = "TRUE"

[[record]]
residue_string = "RRIRFRPPRLPRPRPRPNQCPRP"
tested_target = "Escherichia coli TOP10"
answer_label = "FALSE"

[[record]]
residue_string = "RRIRCRPPRLPRPRPRPNNKPRP"
tested_target = "Escherichia coli TOP10"
answer_label = "FALSE"


Hello, I need to know if RRIRSRPPRLPRPRPRPQNHPRP has measured shrunken log2 fold change not below 0.1. Thanks! FALSE

Request: RRIRIRPPRLPRPRPRPRWAPRP FALSE

Next sequence up: RRIRVRPPRLPRPRPRPHRVPRP TRUE

Repeat with RRIRDRPPRLPRPRPRPSIIPRP FALSE

Similarly, RRIRQRPPRLPRPRPRPLHCPRP ? FALSE

Moving on to the next sequence: RRIRMRPPRLPRPRPRPTEQPRP FALSE

Can you handle RRIRPRPPRLPRPRPRPPMPPRP next? TRUE

Consider next the sequence RRIRNRPPRLPRPRPRPADTPRP in the same way. TRUE

Check RRIRSRPPRLPRPRPRPVLAPRP too. TRUE

Try this sequence next: RRIRLRPPRLPRPRPRPFTIPRP FALSE

RRIRPRPPRLPRPRPRPAPTPRP , same question. TRUE

Here is the next sequence: RRIRSRPPRLPRPRPRPEKFPRP FALSE
